Target: wild-type hGR (Homo sapiens, UniProt P04150)
Construct: expressed in transfected cells
Sequence (P04150 1-777): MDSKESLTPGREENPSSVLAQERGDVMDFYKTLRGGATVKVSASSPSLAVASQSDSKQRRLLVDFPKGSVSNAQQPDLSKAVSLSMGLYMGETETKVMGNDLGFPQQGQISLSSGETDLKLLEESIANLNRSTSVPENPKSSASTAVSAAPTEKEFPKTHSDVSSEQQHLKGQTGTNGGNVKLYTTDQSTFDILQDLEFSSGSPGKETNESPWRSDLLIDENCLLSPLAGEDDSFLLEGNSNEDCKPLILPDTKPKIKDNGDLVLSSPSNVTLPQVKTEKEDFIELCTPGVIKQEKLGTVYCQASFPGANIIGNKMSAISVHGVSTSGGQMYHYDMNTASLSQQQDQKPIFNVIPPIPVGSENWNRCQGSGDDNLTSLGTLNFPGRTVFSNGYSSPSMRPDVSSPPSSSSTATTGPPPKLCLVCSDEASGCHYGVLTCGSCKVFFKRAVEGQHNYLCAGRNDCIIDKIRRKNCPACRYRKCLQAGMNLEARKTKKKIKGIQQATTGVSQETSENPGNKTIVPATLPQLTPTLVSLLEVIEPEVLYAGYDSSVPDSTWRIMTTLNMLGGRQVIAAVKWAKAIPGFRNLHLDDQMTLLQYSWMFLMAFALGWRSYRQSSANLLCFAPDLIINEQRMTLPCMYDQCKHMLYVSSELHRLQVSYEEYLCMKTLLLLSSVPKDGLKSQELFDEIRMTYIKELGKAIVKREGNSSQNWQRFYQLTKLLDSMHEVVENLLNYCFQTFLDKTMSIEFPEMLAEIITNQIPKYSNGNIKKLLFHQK
Test: Transcriptional activation of pTAT-tk-Luc luciferase reporter in transiently transfected CV-1 cells
Assay type: cell-based
Set-up: concentration or dose not given beside the values
Settings: 24 h ligand, mean of three independent assays
Kind request: treat 90% as inclusive, so Luciferase activity % Wild type at 90% or higher is condition met, anything lower is condition not met.

Check if Luciferase activity % Wild type >= 90% (inclusive). Item: CC1(C)O[C@@H]2C[C@H]3[C@@H]4CCC5=CC(=O)C=C[C@]5(C)[C@@]4(F)[C@@H](O)C[C@]3(C)[C@]2(C(=O)CO)O1 [TA, triamcinolone acetonide]
condition met

API: the following record is the query input.
Given C[C@@H]1C[C@H]2[C@@H]3CCC4=CC(=O)C=C[C@]4(C)[C@@]3(F)[C@@H](O)C[C@]2(C)[C@@]1(O)C(=O)CO , state whether its Luciferase activity % Wild type is at least 90%.
condition met
